Recorded pEC50 by entry
Target: hGIPR (Homo sapiens, UniProt P48546)
Sequence (P48546 22-466): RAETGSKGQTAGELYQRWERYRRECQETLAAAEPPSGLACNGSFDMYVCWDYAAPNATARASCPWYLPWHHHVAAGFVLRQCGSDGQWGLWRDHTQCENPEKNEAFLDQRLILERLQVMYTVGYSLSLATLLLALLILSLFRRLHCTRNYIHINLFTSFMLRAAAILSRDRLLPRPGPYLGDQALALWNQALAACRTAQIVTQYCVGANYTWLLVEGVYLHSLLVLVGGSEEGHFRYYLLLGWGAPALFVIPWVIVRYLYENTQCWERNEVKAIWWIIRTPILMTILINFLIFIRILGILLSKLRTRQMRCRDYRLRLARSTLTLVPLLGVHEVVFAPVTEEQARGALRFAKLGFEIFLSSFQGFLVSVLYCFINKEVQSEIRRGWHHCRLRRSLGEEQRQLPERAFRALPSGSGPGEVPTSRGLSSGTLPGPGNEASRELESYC
Assay: Functional cAMP activation in the presence of 0.1% casein (no HSA)
Type: cell-based
Settings: read-out: Relative cAMP EC50, hGIPR
Starred links: 1 amine or outer side, 2 acyl side, 3 side chain; linkers in the order of their positions; H or OH if unused. Non-standard residues stand in square brackets, D forms with d. Groups on a side chain read outwards from the residue. No end group written: not given here. *: point of attachment. C18 diacid = O=C(O)CCCCCCCCCCCCCCCCC(=O)*; αMePhe(2-F) = C[C@](N)(Cc1ccccc1F)C(=O)O; γGlu = O=C(O)[C@H](CCC(=O)[*:2])N[*:1]; αMe4Pal = C[C@](N)(Cc1ccncc1)C(=O)O; αMeY = C[C@](N)(Cc1ccc(O)cc1)C(=O)O; 4Pal = N[C@@H](Cc1ccncc1)C(=O)O; αMeL = CC(C)C[C@](C)(N)C(=O)O; αMeS = C[C@](N)(CO)C(=O)O; Orn = NCCC[C@H](N)C(=O)O; AEEA = NCCOCCOCC(=O)O; Aib = CC(C)(N)C(=O)O
The scale used: pEC50 is minus the common logarithm of the concentration in molar units.

Solved entries (count: 2):
The substance identified as H-Y[Aib]QGT[αMePhe(2-F)]TSD[4Pal]SI[αMeL]LD[Orn]K([γGlu-γGlu-C18 diacid])AQ[αMe4Pal][Orn]FI[dE][αMeY]LIEGGPSSGEPPPEGTGE-NH2 [Example 688] registered its pEC50 at 11.06

The recorded pEC50 for H-Y[Aib]QGT[αMePhe(2-F)]TSD[4Pal][αMeS]I[αMeL]LD[Orn]K([AEEA-AEEA-γGlu-C18 diacid])AQ[Aib][Orn]FI[dE][αMeY]LIEGGPSSGAPEPSEG-NH2 [Example 472] is 10.82

Now for the substance whose pEC50 we want.
Y[Aib]QGT[αMePhe(2-F)]TSD[4Pal][αMeS]I[αMeL]LD[Orn]K([AEEA-γGlu-C18 diacid])AA[Aib]EFI[dE][αMeY]LIEGGPSSGAPPPSGGGE-NH2 [Example 745] has a reported pEC50 of 10.92

* * *

target: hGIPR (Homo sapiens, UniProt P48546); assay: Functional cAMP activation in the presence of 0.1% casein (no HSA); format: cell-based; conditions: in the presence of 0.1% casein (no HSA); geometric mean; read-out: Relative cAMP EC50, hGIPR;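 further: intracellular cAMP rise after 30 min at 37 °C read by HTRF against a standard curve, scaled between buffer alone (0%) and top control ligand concentration (100%), four-parameter fit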
Starred links: 1 amine or outer side, 2 acyl side, 3 side chain; linkers in the order of their positions; H or OH if unused. Non-standard residues stand in square brackets, D forms with d. Groups on a side chain read outwards from the residue. *: point of attachment. C20 diacid = O=C(O)CCCCCCCCCCCCCCCCCCC(=O)*; C18 diacid = O=C(O)CCCCCCCCCCCCCCCCC(=O)*; αMePhe(2-F) = C[C@](N)(Cc1ccccc1F)C(=O)O; γGlu = O=C(O)[C@H](CCC(=O)[*:2])N[*:1]; αMe4Pal = C[C@](N)(Cc1ccncc1)C(=O)O; αMeY = C[C@](N)(Cc1ccc(O)cc1)C(=O)O; 4Pal = N[C@@H](Cc1ccncc1)C(=O)O; αMeL = CC(C)C[C@](C)(N)C(=O)O; αMeS = C[C@](N)(CO)C(=O)O; Orn = NCCC[C@H](N)C(=O)O; AEEA = NCCOCCOCC(=O)O; Aib = CC(C)(N)C(=O)O
observationType: pEC50
// field semantics: pEC50 = negative decimal log of concentration (mol/L)

I looked up H-Y[Aib]QGT[αMePhe(2-F)]TSD[4Pal]SILLDKQAQK([AEEA-AEEA-γGlu-C20 diacid])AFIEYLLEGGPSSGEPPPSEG-NH2 [Example 347] and its pEC50 for hGIPR (Homo sapiens, UniProt P48546) was 10.20

Further cases:
With hGIPR (Homo sapiens, UniProt P48546) as the test system, H-H[Aib]QGT[αMePhe(2-F)]TSDYSILLDKK([AEEA-γGlu-C20 diacid])AA[Aib]AFIEYLIEAGPSSGEPPPSEG-NH2 [Example 298] showed pEC50 of 9.86

H-Y[Aib]QGTFTSDFS[Orn][αMeL]LDKK([AEEA-AEEA-γGlu-C18 diacid])AQ[Aib]AFIEYLLE[dA]GPSSGHPPPSGS-NH2 [Example 253] on hGIPR (Homo sapiens, UniProt P48546) gives pEC50 = 9.94

The reported hGIPR (Homo sapiens, UniProt P48546) pEC50 of H-Y[Aib]QGTFTSD[4Pal][αMeS]Q[αMeL]LD[Orn]K([dE-γGlu-C18 diacid])AQ[αMe4Pal]QFIQ[αMeY]LLE[Aib]GPSSGAPPPSGGGE-NH2 [Example 1138] is 10.31

hGIPR (Homo sapiens, UniProt P48546) data for H-Y[Aib]QGT[αMePhe(2-F)]TSDYSKLLDKIAQK([AEEA-γGlu-C20 diacid])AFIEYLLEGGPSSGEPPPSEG-NH2 [Example 295] ; its pEC50: 9.90
